- Experimental System: T1, EsCas13d, nuclease-dead (Eubacterium siraeum, UniProt B0MS50, R295A;H300A;R849A;H854A)
- T1 sequence: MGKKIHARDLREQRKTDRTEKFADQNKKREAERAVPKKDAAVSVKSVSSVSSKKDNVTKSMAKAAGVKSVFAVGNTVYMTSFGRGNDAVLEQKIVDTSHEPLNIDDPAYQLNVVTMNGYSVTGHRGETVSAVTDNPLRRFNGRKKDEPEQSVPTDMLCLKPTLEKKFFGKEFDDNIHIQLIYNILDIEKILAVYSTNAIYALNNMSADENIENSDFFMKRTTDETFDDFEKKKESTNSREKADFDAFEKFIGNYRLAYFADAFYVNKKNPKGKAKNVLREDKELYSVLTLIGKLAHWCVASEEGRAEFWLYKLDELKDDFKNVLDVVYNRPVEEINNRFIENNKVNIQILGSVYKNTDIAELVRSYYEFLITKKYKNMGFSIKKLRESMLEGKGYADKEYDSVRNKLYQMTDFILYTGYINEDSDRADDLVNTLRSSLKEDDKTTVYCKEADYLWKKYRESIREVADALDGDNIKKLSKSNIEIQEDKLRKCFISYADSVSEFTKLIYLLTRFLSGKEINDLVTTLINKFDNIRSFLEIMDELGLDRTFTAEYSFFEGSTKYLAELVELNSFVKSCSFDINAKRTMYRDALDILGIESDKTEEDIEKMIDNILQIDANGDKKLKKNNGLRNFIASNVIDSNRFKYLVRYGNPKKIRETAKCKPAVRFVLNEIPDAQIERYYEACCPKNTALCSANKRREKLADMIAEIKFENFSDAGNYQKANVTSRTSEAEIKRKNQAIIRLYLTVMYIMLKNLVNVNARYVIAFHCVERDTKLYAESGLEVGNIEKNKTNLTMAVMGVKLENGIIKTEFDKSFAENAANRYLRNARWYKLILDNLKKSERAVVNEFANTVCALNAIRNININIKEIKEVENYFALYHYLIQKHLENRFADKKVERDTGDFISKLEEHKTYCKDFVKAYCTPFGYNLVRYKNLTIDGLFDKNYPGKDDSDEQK
- Method Summary: crRNA (strand 1, pre-loaded); Mg2+; 40 mM Tris-HCl pH 7.5, 150 mM NaCl, 6 mM MgCl2, 1 mM DTT, 0.1% Tween-20, 0.2 mg/ml BSA; 25 C; 10 min per concentration, then washed
- Test Parameters: tags: His6-TwinStrep-SUMO cleaved; N-terminal SNAP kept (SNAP-Surface 488); label: 3' end held by stalled T7 RNA polymerase
Reported Property: Kd (nM)
API: value field is a number in nM; no unit string.

What does the data say about its Kd? Entry: target 1 U11G,C21A (mixed) RNA 1: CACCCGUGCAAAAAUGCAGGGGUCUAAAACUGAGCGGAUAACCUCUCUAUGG RNA 2: GGGAAUGGAUCCACAUCUACGAAUUCGUACAAUAGAGAGGGUAUCCGCUCACCGAGAUCGGAAGAGCACACGU
64

How about this binder: target 3 insU 3' of 13,insG 3' of 6 (mixed) RNA 1: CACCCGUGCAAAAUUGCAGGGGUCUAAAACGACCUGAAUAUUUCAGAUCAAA RNA 2: GGGAAUGGAUCCACAUCUACGAAUUCGUUUUUGAUCUGAUAAUAUUCGAGGUCUGCAGAUCGGAAGAGCACACGU
88

How about this binder: target 1 insG 3' of 8,insU 3' of 1 (mixed) RNA 1: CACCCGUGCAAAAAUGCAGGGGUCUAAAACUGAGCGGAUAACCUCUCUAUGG RNA 2: GGGAAUGGAUCCACAUCUACGAAUUCGUACCAUAGAGAGGUUAUGCCGCUCAUCCGAGAUCGGAAGAGCACACGU
12.6

How about this binder: target 1 insA 3' of 15,insG 3' of 8 (mixed) RNA 1: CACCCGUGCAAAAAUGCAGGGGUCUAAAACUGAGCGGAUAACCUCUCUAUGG RNA 2: GGGAAUGGAUCCACAUCUACGAAUUCGUACCAUAGAGAAGGUUAUGCCGCUCACCGAGAUCGGAAGAGCACACGU
7.9
